Biological target: T1, human chemokine (C-C motif) receptor 8 (CCR8) (human, UniProt P51685 1-355)
T1 construct: On human peripheral blood lymphocytes / PBMC (native) or on human CCR8 GFP-transfected Ba/F3 cells; also called hCCR8; human CCR8
T1 sequence (P51685 whole entry): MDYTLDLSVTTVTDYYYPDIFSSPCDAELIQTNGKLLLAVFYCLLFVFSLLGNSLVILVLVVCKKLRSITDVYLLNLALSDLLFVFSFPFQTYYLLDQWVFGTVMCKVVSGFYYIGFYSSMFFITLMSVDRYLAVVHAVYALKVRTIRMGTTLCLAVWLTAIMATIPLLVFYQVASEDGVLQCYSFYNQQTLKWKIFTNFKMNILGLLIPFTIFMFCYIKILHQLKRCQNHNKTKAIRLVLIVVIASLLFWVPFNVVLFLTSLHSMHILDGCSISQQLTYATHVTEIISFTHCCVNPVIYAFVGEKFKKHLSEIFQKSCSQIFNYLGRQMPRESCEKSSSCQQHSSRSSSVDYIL
Assay: flow cytometry blocking, PBMC CCR8+ CD4+ cells; competitor PE-AB5 (its MFI is read)
Procedure: For blocking studies, 100 μL of the cell suspension were incubated with 10 μg purified isotype control, AB1, AB2, AB3, AB4, AB5, AB8, AB9, AB10, AB11, AB12, AB13, AB14, AB15, and Commercial ABI antibodies, or isotype control, as blocking agents. […]
Measured endpoint: MFI

Quick note, MFI for AB12 (antibody, V domains shown, Hybridoma monoclonal; also called antibody 12; clone 12) VH: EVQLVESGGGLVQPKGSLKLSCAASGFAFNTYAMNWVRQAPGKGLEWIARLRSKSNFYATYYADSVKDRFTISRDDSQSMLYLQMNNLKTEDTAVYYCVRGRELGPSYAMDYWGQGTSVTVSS VL: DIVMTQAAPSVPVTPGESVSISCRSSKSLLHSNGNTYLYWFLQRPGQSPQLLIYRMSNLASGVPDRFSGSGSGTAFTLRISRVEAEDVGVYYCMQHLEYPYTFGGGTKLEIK landed at 1020
